Attribute: After 12 months Titre
# PROTOCOL_DESCRIPTION: Stability of the powder in sealed aluminium foil bag, purity and titre by HPLC after 6 and 12 months
# Assay type: physicochemical
# STATED_CONDITIONS: airtight container, protected from light, 12 months

The following compounds have reported results that may help.
## Task Sample CN1c2c(nc(N)[nH]c2=O)NCC1CNc1ccc(C(=O)N[C@@H](CCC(=O)O)C(=O)O)cc1 (stereo partly drawn) [D-GAL (6R,S)-5-MTHF] — what was its After 12 months Titre?
## Result 55.3

## Task Sample CN1c2c(nc(N)[nH]c2=O)NCC1CNc1ccc(C(=O)NC(CCC(=O)O)C(=O)O)cc1 (centres unmarked) — what was its After 12 months Titre?
## Result 55.1

## Task Sample Nc1nc2ncc(CNc3ccc(C(=O)N[C@@H](CCC(=O)O)C(=O)O)cc3)nc2c(=O)[nH]1 [D-GLU folate, D-glucosamine L-folate] — what was its After 12 months Titre?
## Result 54.0

## Task Sample Nc1nc2ncc(CNc3ccc(C(=O)N[C@@H](CCC(=O)O)C(=O)O)cc3)nc2c(=O)[nH]1 [D-GAL folate, D-galactosamine L-folate] — what was its After 12 months Titre?
## Result 54.2

More entries:
## Task Sample CN1c2c(nc(N)[nH]c2=O)NCC1CNc1ccc(C(=O)N[C@@H](CCC(=O)O)C(=O)O)cc1 (stereo partly drawn) [D-GLU 5-MTHF] — what was its After 12 months Titre?
## Result 54.8

---

# PROTOCOL_DESCRIPTION: Stability of the powder in sealed aluminium foil bag, purity and titre by HPLC after 6 and 12 months
# Assay type: physicochemical
# STATED_CONDITIONS: airtight container, protected from light, 12 months
ENDPOINT_LABEL: After 12 months Purity
Please give the numeric answer without any surrounding text.

## Task Sample Nc1nc2ncc(CNc3ccc(C(=O)N[C@@H](CCC(=O)O)C(=O)O)cc3)nc2c(=O)[nH]1 [D-GLU folate, D-glucosamine L-folate] — what was its After 12 months Purity?
## Result 98.7

## Task Sample CN1c2c(nc(N)[nH]c2=O)NCC1CNc1ccc(C(=O)N[C@@H](CCC(=O)O)C(=O)O)cc1 (stereo partly drawn) [D-GAL (6R,S)-5-MTHF] — what was its After 12 months Purity?
## Result 98.7

## Task Sample CN1c2c(nc(N)[nH]c2=O)NCC1CNc1ccc(C(=O)NC(CCC(=O)O)C(=O)O)cc1 (centres unmarked) — what was its After 12 months Purity?
## Result 98.5

## Task Sample CN1c2c(nc(N)[nH]c2=O)NCC1CNc1ccc(C(=O)N[C@@H](CCC(=O)O)C(=O)O)cc1 (stereo partly drawn) [D-GLU 5-MTHF] — what was its After 12 months Purity?
## Result 99.0

## Task Sample Nc1nc2ncc(CNc3ccc(C(=O)N[C@@H](CCC(=O)O)C(=O)O)cc3)nc2c(=O)[nH]1 [D-GAL folate, D-galactosamine L-folate] — what was its After 12 months Purity?
## Result 98.7

---

# PROTOCOL_DESCRIPTION: Stability of the powder in sealed aluminium foil bag, purity and titre by HPLC after 6 and 12 months
# Type: physicochemical
# STATED_CONDITIONS: airtight container, protected from light, 6 months
Attribute: After 6 months Purity

The following compounds have reported results that may help.
## Task Sample CN1c2c(nc(N)[nH]c2=O)NCC1CNc1ccc(C(=O)N[C@@H](CCC(=O)O)C(=O)O)cc1 (stereo partly drawn) [D-GLU 5-MTHF] — what was its After 6 months Purity?
## Result 98.9

## Task Sample Nc1nc2ncc(CNc3ccc(C(=O)N[C@@H](CCC(=O)O)C(=O)O)cc3)nc2c(=O)[nH]1 [D-GLU folate, D-glucosamine L-folate] — what was its After 6 months Purity?
## Result 98.8

## Task Sample CN1c2c(nc(N)[nH]c2=O)NCC1CNc1ccc(C(=O)N[C@@H](CCC(=O)O)C(=O)O)cc1 (stereo partly drawn) [D-GAL (6R,S)-5-MTHF] — what was its After 6 months Purity?
## Result 98.9

## Task Sample CN1c2c(nc(N)[nH]c2=O)NCC1CNc1ccc(C(=O)NC(CCC(=O)O)C(=O)O)cc1 (centres unmarked) — what was its After 6 months Purity?
## Result 99.0

Attention now shifts to the item below.
## Task Sample Nc1nc2ncc(CNc3ccc(C(=O)N[C@@H](CCC(=O)O)C(=O)O)cc3)nc2c(=O)[nH]1 [D-GAL folate, D-galactosamine L-folate] — what was its After 6 months Purity?
## Result 99.1
